# System: NCI-H322M multicellular tumor spheroids, viability (% test/control)
# TEST DETAILS: Anticancer human tumor NCI-H322M cell line growth inhibition
# MEASUREMENT CONTEXT: curve of first compound; second compound 0.00949 µM
pIC50: −log10 of the molar value.
// values below are reported pIC50

Answered cases to consult:
[
  {
    "MOLECULE": "CC1COCCN1c1cc(-c2ccnn2C)c2ccnc(-c3ccn[nH]3)c2n1 (stereo not given) + CC[C@@]1(O)C(=O)OCc2c1cc1n(c2=O)Cc2cc3c(CN(C)C)c(O)ccc3nc2-1",
    "pIC50": "> 7.50"
  },
  {
    "MOLECULE": "[2H]c1nc(C)nc([2H])c1-c1cc(NC[C@@H](C)c2cccc3c(C(=O)NC)ccnc23)ncn1 + CC[C@@]1(O)C(=O)OCc2c1cc1n(c2=O)Cc2cc3c(CN(C)C)c(O)ccc3nc2-1",
    "pIC50": "< 5.00"
  },
  {
    "MOLECULE": "Cc1cc(C)c(CNC(=O)c2cc(-c3ccc(CN4CCOCC4)cc3)cc3c2cnn3C2CCCC2)c(=O)[nH]1 + CC[C@@]1(O)C(=O)OCc2c1cc1n(c2=O)Cc2cc3c(CN(C)C)c(O)ccc3nc2-1",
    "pIC50": "< 5.00"
  },
  {
    "MOLECULE": "Cn1ncnc1[C@H]1c2n[nH]c(=O)c3cc(F)cc(c23)N[C@@H]1c1ccc(F)cc1 + CC[C@@]1(O)C(=O)OCc2c1cc1n(c2=O)Cc2cc3c(CN(C)C)c(O)ccc3nc2-1",
    "pIC50": "< 5.52"
  },
  {
    "MOLECULE": "O=C(c1cc(Cc2n[nH]c(=O)c3ccccc23)ccc1F)N1CCN(C(=O)C2CC2)CC1 + CC[C@@]1(O)C(=O)OCc2c1cc1n(c2=O)Cc2cc3c(CN(C)C)c(O)ccc3nc2-1",
    "pIC50": "< 4.52"
  },
  {
    "MOLECULE": "COc1cc(C)[nH]c(=O)c1CN1CCc2c(Cl)cc(C(OC)C3COC3)c(Cl)c2C1=O (stereo not given) + CC[C@@]1(O)C(=O)OCc2c1cc1n(c2=O)Cc2cc3c(CN(C)C)c(O)ccc3nc2-1",
    "pIC50": "< 5.00"
  },
  {
    "MOLECULE": "Cc1sc2c(c1C)C(c1ccc(Cl)cc1)=NC(CC(=O)Nc1ccc(O)cc1)c1nnc(C)n1-2 (stereo not given) + CC[C@@]1(O)C(=O)OCc2c1cc1n(c2=O)Cc2cc3c(CN(C)C)c(O)ccc3nc2-1",
    "pIC50": "< 5.52"
  },
  {
    "MOLECULE": "CC(C)n1c(=O)n(C)c2cnc3cc(F)c(-c4ccc(OCCCN5CCCCC5)nc4)cc3c21 + CC[C@@]1(O)C(=O)OCc2c1cc1n(c2=O)Cc2cc3c(CN(C)C)c(O)ccc3nc2-1",
    "pIC50": "< 5.00"
  }
]

Recorded pIC50 (molecule COc1ccc([C@@H](O)c2cc(-c3ncnc4cc(N5CCOCC5)ccc34)c(F)cc2Cl)nn1 + CC[C@@]1(O)C(=O)OCc2c1cc1n(c2=O)Cc2cc3c(CN(C)C)c(O)ccc3nc2-1 ): 5.87

Looking up CNCc1ccc(-c2cc(-c3nc(-c4ccc(S(=O)(=O)C(C)C)cc4)cnc3N)on2)cc1 + CC[C@@]1(O)C(=O)OCc2c1cc1n(c2=O)Cc2cc3c(CN(C)C)c(O)ccc3nc2-1 , I see its pIC50 listed as < 5.52

All figures here come from PubChem BioAssay AID1845211.
